System: Cryptococcus neoformans
Test: Antifungal activity against Cryptococcus neoformans after 24 to 72 hrs by broth microdilution method
Assay type: functional
Reported MIC90 values follow for various compounds

Past entries and their recorded results:
compound	MIC90
CC[C@@H]([C@H](C)O)n1ncn(-c2ccc(N3CCN(c4ccc(OC[C@@H]5CO[C@@](Cn6cncn6)(c6ccc(F)cc6F)C5)cc4)CC3)cc2)c1=O	0.125 µg/mL
CCCCCCc1cc[n+](CCCCCCCCCCCC[n+]2ccc(CCCCCC)cc2)cc1.[Cl-].[Cl-]	3.11 µg/mL
CCC(C)n1ncn(-c2ccc(N3CCN(c4ccc(OCC5COC(Cn6cncn6)(c6ccc(Cl)cc6Cl)O5)cc4)CC3)cc2)c1=O (stereo unspecified)	0.125 µg/mL
C[C@@H]1[C@H](O)[C@@H](C)/C=C/C=C/C=C/C=C/C=C/C=C/C=C/[C@H](O[C@@H]2O[C@H](C)[C@@H](O)[C@H](N)[C@@H]2O)C[C@@H]2O[C@](O)(C[C@@H](O)C[C@@H](O)[C@H](O)CC[C@@H](O)C[C@@H](O)CC(=O)O[C@H]1C)C[C@H](O)[C@H]2C(=O)O	0.5 µg/mL
OC(Cn1cncn1)(Cn1cncn1)c1ccc(F)cc1F	16 µg/mL

Notebook: "C[C@@H](c1ncncc1F)[C@](O)(Cn1cncn1)c1ccc(F)cc1F" , MIC90 read as 0.125 µg/mL

###

System: Cryptococcus neoformans
Assay: Antifungal activity against Cryptococcus neoformans after 24 to 72 hrs by broth microdilution method
Format: functional
Label label 1 when MIC50 < 3 µg/mL; otherwise label 0.

compound	class
CCCCCc1cc[n+](CCCCCCCCCCCC[n+]2ccc(CCCCC)c(C)c2)cc1C.[Cl-].[Cl-]	label 1
CCCCCc1cc[n+](CCCCCCCCCCCC[n+]2ccc(CCCCC)cc2)cc1.[Cl-].[Cl-]	label 1
C[C@@H](c1ncncc1F)[C@](O)(Cn1cncn1)c1ccc(F)cc1F	label 1
CC[C@H](C)C[C@H](C)CCCCCCCCC(=O)N[C@H]1C[C@@H](O)[C@@H](NCCN)NC(=O)[C@@H]2[C@@H](O)CCN2C(=O)[C@H]([C@H](O)CCN)NC(=O)[C@H]([C@H](O)[C@@H](O)c2ccc(O)cc2)NC(=O)[C@@H]2C[C@@H](O)CN2C(=O)[C@H]([C@@H](C)O)NC1=O	label 0
CCC(C)n1ncn(-c2ccc(N3CCN(c4ccc(OCC5COC(Cn6cncn6)(c6ccc(Cl)cc6Cl)O5)cc4)CC3)cc2)c1=O (configuration not stated)	label 1

Here is another compound to look at.
Just wondering, is MIC50 of "OC(Cn1cncn1)(Cn1cncn1)c1ccc(F)cc1F" below 3 µg/mL?
label 0

###

System: Clavispora lusitaniae
Assay: Antifungal activity against Candida lusitaniae after 24 to 72 hrs by broth microdilution method
Assay type: functional
Note: every record was labeled by where its MIC90 sits among low value: < 0.2 µg/mL; medium value: ≥ 0.2 µg/mL and < 2 µg/mL; high value: ≥ 2 µg/mL

These solved cases illustrate the format of a correct answer.
compound	class
C[C@@H](c1ncncc1F)[C@](O)(Cn1cncn1)c1ccc(F)cc1F [VORICONAZOLE]	low value
CCCCCc1cc[n+](CCCCCCCCCCCC[n+]2ccc(CCCCC)c(C)c2)cc1C.[Cl-].[Cl-]	high value
C=CCCCc1cc[n+](CCCCCCCCCCCC[n+]2ccc(CCCC=C)cc2)cc1.[Cl-].[Cl-]	high value
CC[C@@H]([C@H](C)O)n1ncn(-c2ccc(N3CCN(c4ccc(OC[C@@H]5CO[C@@](Cn6cncn6)(c6ccc(F)cc6F)C5)cc4)CC3)cc2)c1=O [POSACONAZOLE]	low value
CC[C@H](C)C[C@H](C)CCCCCCCCC(=O)N[C@H]1C[C@@H](O)[C@@H](NCCN)NC(=O)[C@@H]2[C@@H](O)CCN2C(=O)[C@H]([C@H](O)CCN)NC(=O)[C@H]([C@H](O)[C@@H](O)c2ccc(O)cc2)NC(=O)[C@@H]2C[C@@H](O)CN2C(=O)[C@H]([C@@H](C)O)NC1=O [CASPOFUNGIN]	medium value
CCC(C)n1ncn(-c2ccc(N3CCN(c4ccc(OCC5COC(Cn6cncn6)(c6ccc(Cl)cc6Cl)O5)cc4)CC3)cc2)c1=O (stereo not given) [ITRACONAZOLE]	medium value
OC(Cn1cncn1)(Cn1cncn1)c1ccc(F)cc1F [FLUCONAZOLE]	high value
CCCCCc1cc[n+](CCCCCCCCCCCC[n+]2ccc(CCCCC)cc2)cc1.[Cl-].[Cl-]	medium value
CCCCCCc1cc[n+](CCCCCCCCCCCC[n+]2ccc(CCCCCC)cc2)cc1.[Cl-].[Cl-]	medium value

Here is another compound to look at.
Any idea which band C[C@@H]1[C@H](O)[C@@H](C)/C=C/C=C/C=C/C=C/C=C/C=C/C=C/[C@H](O[C@@H]2O[C@H](C)[C@@H](O)[C@H](N)[C@@H]2O)C[C@@H]2O[C@](O)(C[C@@H](O)C[C@@H](O)[C@H](O)CC[C@@H](O)C[C@@H](O)CC(=O)O[C@H]1C)C[C@H](O)[C@H]2C(=O)O [AMPHOTERICIN B] is in?
medium value

###

Test system: Candida dubliniensis
Assay: Antifungal activity against Candida dubliniensis after 24 to 72 hrs by broth microdilution method
Assay type: functional
metric: MIC90 (µg/mL)
The figure you give is taken to be in µg/mL; do not add the unit.

Past entries and their recorded results:
smiles notation	measured target	result units	MIC90
CC[C@H](C)C[C@H](C)CCCCCCCCC(=O)N[C@H]1C[C@@H](O)[C@@H](NCCN)NC(=O)[C@@H]2[C@@H](O)CCN2C(=O)[C@H]([C@H](O)CCN)NC(=O)[C@H]([C@H](O)[C@@H](O)c2ccc(O)cc2)NC(=O)[C@@H]2C[C@@H](O)CN2C(=O)[C@H]([C@@H](C)O)NC1=O	Candida dubliniensis	µg/mL	0.125
CCCCCc1cc[n+](CCCCCCCCCCCC[n+]2ccc(CCCCC)c(C)c2)cc1C.[Cl-].[Cl-]	Candida dubliniensis	µg/mL	0.79
C[C@@H](c1ncncc1F)[C@](O)(Cn1cncn1)c1ccc(F)cc1F	Candida dubliniensis	µg/mL	0.016

Below: the item to evaluate.
Summary: "CCCCCc1cc[n+](CCCCCCCCCCCC[n+]2ccc(CCCCC)cc2)cc1.[Cl-].[Cl-]" , Candida dubliniensis, MIC90 = 0.75

###

Reported MIC values follow for various molecules
Tested on: Aspergillus terreus
Assay: Antifungal activity against Aspergillus terreus 05-202844 after 24 to 72 hrs by broth microdilution method
Format: functional
The figure you give is taken to be in µg/mL; do not add the unit.

>>> print(df.to_string())
                            smiles_notation      measured_target  metric  result_number
0  CC(C)(C)CCc1cc[n+](CCCCCCCCCCCC[n+]2ccc(CCC(C)(C)C)cc2)cc1.[Cl-].[Cl-]  Aspergillus terreus     MIC           50.7
1  CC(C)CCc1cc[n+](CCCCCCCCCCCC[n+]2ccc(CCC(C)C)cc2)cc1.[Cl-].[Cl-]  Aspergillus terreus     MIC           2.96
2  CCCCCCc1cc[n+](CCCCCCCCCCCC[n+]2ccc(CCCCCC)cc2)cc1.[Cl-].[Cl-]  Aspergillus terreus     MIC           0.79
3  C=CCCCc1cc[n+](CCCCCCCCCCCC[n+]2ccc(CCCC=C)cc2)cc1.[Cl-].[Cl-]  Aspergillus terreus     MIC           1.48
4  CCCCCc1cc[n+](CCCCCCCCCCCC[n+]2ccc(CCCCC)cc2)cc1.[Cl-].[Cl-]  Aspergillus terreus     MIC            5.9
5  CCCCCc1cccc[n+]1CCCCCCCCCCCC[n+]1ccccc1CCCCC.[Cl-].[Cl-]  Aspergillus terreus     MIC           0.74
6  CCCCCc1cc[n+](CCCCCCCCCCCC[n+]2ccc(CCCCC)c(CCCCC)c2)cc1CCCCC.[Cl-].[Cl-]  Aspergillus terreus     MIC           0.93
7  [Cl-].[Cl-].c1ccc(CCCc2cc[n+](CCCCCCCCCCCC[n+]3ccc(CCCc4ccccc4)cc3)cc2)cc1  Aspergillus terreus     MIC           1.74

Notebook: "CCCCC(CCCC)c1cc[n+](CCCCCCCCCCCC[n+]2ccc(C(CCCC)CCCC)c(C)c2)cc1C.[Cl-].[Cl-]" , MIC read as 3.7

Notebook: "CCCCCc1cc[n+](CCCCCCCCCCCC[n+]2ccc(CCCCC)c(C)c2)cc1C.[Cl-].[Cl-]" , MIC read as 0.7

###

Test system: Cryptococcus gattii species complex
Experiment: Antifungal activity against Cryptococcus gattii after 24 to 72 hrs by broth microdilution method
Format: functional, Cryptococcus bacillisporus
Reported MIC values follow for various compounds
The figure you give is taken to be in mg/L; do not add the unit.

Past entries and their recorded results:
compound	metric	result units	result number
CCCCCc1cc[n+](CCCCCCCCCCCC[n+]2ccc(CCCCC)c(C)c2)cc1C.[Cl-].[Cl-]	MIC	mg/L	0.79
C[C@@H]1[C@H](O)[C@@H](C)/C=C/C=C/C=C/C=C/C=C/C=C/C=C/[C@H](O[C@@H]2O[C@H](C)[C@@H](O)[C@H](N)[C@@H]2O)C[C@@H]2O[C@](O)(C[C@@H](O)C[C@@H](O)[C@H](O)CC[C@@H](O)C[C@@H](O)CC(=O)O[C@H]1C)C[C@H](O)[C@H]2C(=O)O [AMPHOTERICIN B]	MIC	mg/L	0.19
CC[C@@H]([C@H](C)O)n1ncn(-c2ccc(N3CCN(c4ccc(OC[C@@H]5CO[C@@](Cn6cncn6)(c6ccc(F)cc6F)C5)cc4)CC3)cc2)c1=O [POSACONAZOLE]	MIC	mg/L	0.04
OC(Cn1cncn1)(Cn1cncn1)c1ccc(F)cc1F [FLUCONAZOLE]	MIC	mg/L	4
CCCCCc1cc[n+](CCCCCCCCCCCC[n+]2ccc(CCCCC)cc2)cc1.[Cl-].[Cl-]	MIC	mg/L	1.06

Notebook: "CCCCCCc1cc[n+](CCCCCCCCCCCC[n+]2ccc(CCCCCC)cc2)cc1.[Cl-].[Cl-]" , MIC read as 0.79

Notebook: C[C@@H](c1ncncc1F)[C@](O)(Cn1cncn1)c1ccc(F)cc1F [VORICONAZOLE] , MIC read as 0.05

Notebook: CCC(C)n1ncn(-c2ccc(N3CCN(c4ccc(OCC5COC(Cn6cncn6)(c6ccc(Cl)cc6Cl)O5)cc4)CC3)cc2)c1=O (stereo not given) [ITRACONAZOLE] , MIC read as 0.07

Notebook: CC[C@H](C)C[C@H](C)CCCCCCCCC(=O)N[C@H]1C[C@@H](O)[C@@H](NCCN)NC(=O)[C@@H]2[C@@H](O)CCN2C(=O)[C@H]([C@H](O)CCN)NC(=O)[C@H]([C@H](O)[C@@H](O)c2ccc(O)cc2)NC(=O)[C@@H]2C[C@@H](O)CN2C(=O)[C@H]([C@@H](C)O)NC1=O [CASPOFUNGIN] , MIC read as 8

Notebook: "C=CCCCc1cc[n+](CCCCCCCCCCCC[n+]2ccc(CCCC=C)cc2)cc1.[Cl-].[Cl-]" , MIC read as 1.81
